- ASSAY TARGET: BACE (Homo sapiens (Human), UniProt P56817)
- Sequence (P56817 46-501, species assumed): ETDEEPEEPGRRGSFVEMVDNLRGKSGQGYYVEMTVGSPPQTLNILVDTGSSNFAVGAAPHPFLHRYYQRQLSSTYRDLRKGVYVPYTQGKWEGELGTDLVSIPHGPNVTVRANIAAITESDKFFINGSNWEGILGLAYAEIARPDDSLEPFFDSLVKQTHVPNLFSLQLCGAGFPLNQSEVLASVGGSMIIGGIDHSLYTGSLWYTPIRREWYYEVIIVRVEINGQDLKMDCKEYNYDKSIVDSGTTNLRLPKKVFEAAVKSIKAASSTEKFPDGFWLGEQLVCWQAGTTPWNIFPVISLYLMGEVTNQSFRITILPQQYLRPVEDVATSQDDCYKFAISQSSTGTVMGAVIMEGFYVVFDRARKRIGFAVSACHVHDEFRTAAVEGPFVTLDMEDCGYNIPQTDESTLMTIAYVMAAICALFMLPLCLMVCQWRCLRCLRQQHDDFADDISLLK
- PROTOCOL NOTES: In vitro BACE cell-based assay (Aβ40 in conditioned medium, sandwich ELISA)
Reported IC50 values are given for each entry in this list.
Report as a plain number; the unit µM is understood.

Worked cases, IC50 given:
{"COMPOUND": "NC1=N[C@@](c2cc(NC(=O)c3ccc(Br)cn3)ccc2Cl)(C(F)F)[C@H]2C[C@H]2O1", "IC50 [µM]": 0.0132}
{"COMPOUND": "NC1=N[C@@](c2cc(NC(=O)C3CC3)ccc2F)(C(F)F)[C@H]2C[C@H]2O1", "IC50 [µM]": 3.19}
{"COMPOUND": "NC1=N[C@](c2cc(NC(=O)c3ccc(Cl)cn3)cnc2F)(C(F)F)[C@@H]2C[C@@H]2O1 (racemic)", "IC50 [µM]": 0.331}
{"COMPOUND": "COc1cnc(C(=O)Nc2ccc(F)c([C@@]3(CF)N=C(N)O[C@@H]4C[C@@H]43)c2)c(Cl)c1", "IC50 [µM]": 0.0064}
{"COMPOUND": "N#Cc1cnc(C(=O)Nc2ccc(Cl)c([C@@]3(CF)N=C(N)O[C@@H]4C[C@@H]43)c2)c(CO)c1", "IC50 [µM]": 0.0145}

Exam item: Returns the measured IC50 for the input compound. Input: NC1=N[C@](CF)(c2cc(NC(=O)c3ccc(Cl)cn3)cnc2F)[C@H]2C[C@H]2O1
Marked response: 0.0277

Exam item: Returns the measured IC50 for the input compound. Input: CC(C)c1cc(C#N)cnc1C(=O)Nc1ccc(F)c([C@@]2(C(F)F)N=C(N)O[C@@H]3C[C@@H]32)c1
Marked response: 0.289

Exam item: Returns the measured IC50 for the input compound. Input: N#Cc1ccc(C(=O)Nc2cc(F)c(Cl)c([C@]3(CF)N=C(N)O[C@H]4C[C@H]43)c2)nc1 (racemic)
Marked response: 0.0214

Exam item: Returns the measured IC50 for the input compound. Input: C[C@]1(c2cc(NC(=O)c3ccc(Cl)cn3)ccc2F)N=C(N)O[C@@H]2C[C@@H]21
Marked response: 0.0063

Exam item: Returns the measured IC50 for the input compound. Input: NC1=N[C@@](c2cc(NC(=O)c3cccc(Cl)n3)ccc2F)(C(F)F)[C@H]2C[C@H]2O1
Marked response: 1.12

Data origin, for the record: patent US9085576B2
